Biological target: T1, TNFR1 (Homo sapiens, UniProt P19438)
T1 chain: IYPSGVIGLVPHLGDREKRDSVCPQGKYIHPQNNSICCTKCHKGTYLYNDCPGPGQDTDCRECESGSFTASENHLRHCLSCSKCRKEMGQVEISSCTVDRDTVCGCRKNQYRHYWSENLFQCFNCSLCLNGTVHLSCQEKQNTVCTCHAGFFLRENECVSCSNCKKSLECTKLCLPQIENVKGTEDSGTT
Assay: yeast display SC50
measurementName: apparent Kd (screen) (nM)

K71A (designed binder) SMEEEVEKAAKEYEKKKKEAIEKHLEKLKAKDKEAAERFLKELEEAAKEYAKDEAKTMSEEEAKRRAKKYAEKVLLSELSEEEQKEIKEAEEKLVRTILKYVEEAAK : 0.446
K88S (designed binder) SMEEEVEKAAKEYEKKKKEAIEKHLEKLKAKDKEAAERFLKELEEAAKEYAKDEAKTMSEEEAKRRAKKYKEKVLLSELSEEEQKEISEAEEKLVRTILKYVEEAAK : 0.49
A46P (designed binder) SMEEEVEKAAKEYEKKKKEAIEKHLEKLKAKDKEAAERFLKELEEPAKEYAKDEAKTMSEEEAKRRAKKYKEKVLLSELSEEEQKEIKEAEEKLVRTILKYVEEAAK : 11.4
E83Y (designed binder) SMEEEVEKAAKEYEKKKKEAIEKHLEKLKAKDKEAAERFLKELEEAAKEYAKDEAKTMSEEEAKRRAKKYKEKVLLSELSEEYQKEIKEAEEKLVRTILKYVEEAAK : 2.05
E7C (designed binder) SMEEEVCKAAKEYEKKKKEAIEKHLEKLKAKDKEAAERFLKELEEAAKEYAKDEAKTMSEEEAKRRAKKYKEKVLLSELSEEEQKEIKEAEEKLVRTILKYVEEAAK : 6.43

(a) I21N (designed binder) SMEEEVEKAAKEYEKKKKEANEKHLEKLKAKDKEAAERFLKELEEAAKEYAKDEAKTMSEEEAKRRAKKYKEKVLLSELSEEEQKEIKEAEEKLVRTILKYVEEAAK
(b) Y50S (designed binder) SMEEEVEKAAKEYEKKKKEAIEKHLEKLKAKDKEAAERFLKELEEAAKESAKDEAKTMSEEEAKRRAKKYKEKVLLSELSEEEQKEIKEAEEKLVRTILKYVEEAAK
**Q:** Identify the item whose apparent Kd (screen) is the smaller number: a or b Bench note: the answer is the label of the chosen record.
**A:** a

This collection of values is drawn from paper PMC12416549.
